system: K562; experiment: NCI tumour cell line growth inhibition, 48 h
Active and inactive are the calls of the source. No stated cut-off is given here; in the data, active = GI50 up to about 1.1 µM and inactive = higher.
The reply should be one of these categories: active, inactive

Fill in: this test's call for CCCC(=O)Nc1cc(C(=O)N2C[C@H]3C[C@@]34C2=CC(=O)c2[nH]cc(C)c24)n(COC)c1 is ___
active

Fill in: this test's call for CC(=O)N1CC(C)(C)c2c(C)c(O)c(C)c(C)c21 is ___
inactive

Fill in: this test's call for CCN(CC)CCCNc1nccc2c(C)c3[nH]c4ccncc4c(=O)c3cc12 is ___
inactive

Fill in: this test's call for CC1(Cc2cc3c(cc2C2(c4ccc([N+](=O)[O-])cc4)OCCO2)OCO3)OCCO1 is ___
inactive

Fill in: this test's call for CC1CCCP(=O)(c2ccccc2)CC1 (stereo not drawn) is ___
inactive

Fill in: this test's call for O=C(N/C(=C\c1ccccc1)c1nc2ccccc2c(=O)o1)c1ccccc1 is ___
inactive

Continuing:
Fill in: this test's call for CCc1cccc(=O)c([O-])c1.CCc1cccc(=O)c([O-])c1.[Bi+3].[Cl-] is ___
inactive
